- EXPERIMENTAL TARGET: tetanus neurotoxin (TeNT), authentic tetanus holotoxin (Clostridium tetani, UniProt P04958 2-1315)
- Sequence (P04958 2-457 limits assumed, chain 1 of 2): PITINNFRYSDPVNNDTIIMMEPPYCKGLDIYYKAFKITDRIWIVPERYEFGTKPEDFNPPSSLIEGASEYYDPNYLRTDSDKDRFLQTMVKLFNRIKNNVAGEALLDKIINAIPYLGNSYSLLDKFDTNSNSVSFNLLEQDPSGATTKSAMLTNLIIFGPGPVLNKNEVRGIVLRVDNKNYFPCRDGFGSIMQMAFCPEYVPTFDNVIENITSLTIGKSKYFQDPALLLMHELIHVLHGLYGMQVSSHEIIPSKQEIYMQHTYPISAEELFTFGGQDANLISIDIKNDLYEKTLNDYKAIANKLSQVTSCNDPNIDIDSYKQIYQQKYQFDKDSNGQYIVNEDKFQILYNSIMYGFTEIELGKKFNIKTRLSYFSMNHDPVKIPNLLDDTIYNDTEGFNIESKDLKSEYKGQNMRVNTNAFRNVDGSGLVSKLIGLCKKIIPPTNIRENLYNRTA
- Sequence (P04958 458-1315 limits assumed, chain 2 of 2): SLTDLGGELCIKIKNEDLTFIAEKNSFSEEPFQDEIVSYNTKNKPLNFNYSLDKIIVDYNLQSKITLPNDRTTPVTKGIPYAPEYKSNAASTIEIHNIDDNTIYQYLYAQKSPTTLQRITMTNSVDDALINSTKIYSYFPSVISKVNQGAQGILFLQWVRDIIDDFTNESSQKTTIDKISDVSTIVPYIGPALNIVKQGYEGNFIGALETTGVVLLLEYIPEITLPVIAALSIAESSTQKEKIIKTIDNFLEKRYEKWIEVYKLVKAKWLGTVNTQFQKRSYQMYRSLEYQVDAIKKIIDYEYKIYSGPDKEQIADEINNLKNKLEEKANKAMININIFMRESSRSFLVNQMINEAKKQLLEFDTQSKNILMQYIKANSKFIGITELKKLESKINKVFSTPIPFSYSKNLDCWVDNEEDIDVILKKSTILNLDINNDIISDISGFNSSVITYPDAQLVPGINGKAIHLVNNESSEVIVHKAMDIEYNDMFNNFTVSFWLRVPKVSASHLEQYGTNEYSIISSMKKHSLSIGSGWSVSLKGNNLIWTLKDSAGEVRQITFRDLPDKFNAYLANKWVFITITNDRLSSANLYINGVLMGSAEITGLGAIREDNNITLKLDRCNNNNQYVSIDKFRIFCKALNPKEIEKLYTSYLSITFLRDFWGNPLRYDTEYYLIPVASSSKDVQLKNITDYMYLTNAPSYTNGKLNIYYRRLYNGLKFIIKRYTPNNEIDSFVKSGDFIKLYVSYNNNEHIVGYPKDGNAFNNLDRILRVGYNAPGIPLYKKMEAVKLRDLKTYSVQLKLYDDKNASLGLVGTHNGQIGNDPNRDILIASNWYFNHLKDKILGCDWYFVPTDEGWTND
- ASSAY OVERVIEW: competition ELISA on TeNT, binder biotinylated; competitor SVT22L
Returns true if the recorded % inhibition of binding is greater than or equal to 6%, and false otherwise.

Determine whether this binder has % inhibition of binding no lower than 6%: SVT15L-3FW4M (VHH) VHH: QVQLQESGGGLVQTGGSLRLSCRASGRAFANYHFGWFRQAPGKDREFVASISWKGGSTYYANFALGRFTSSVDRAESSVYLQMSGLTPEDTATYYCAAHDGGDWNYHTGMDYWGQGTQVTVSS
false

Determine whether this binder has % inhibition of binding no lower than 6%: SVT16L (VHH) VHH: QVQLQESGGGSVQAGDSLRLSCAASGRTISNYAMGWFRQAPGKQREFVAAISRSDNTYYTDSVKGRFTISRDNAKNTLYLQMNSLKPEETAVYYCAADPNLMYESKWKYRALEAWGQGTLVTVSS
true

Determine whether this binder has % inhibition of binding no lower than 6%: SVT34L (VHH) VHH: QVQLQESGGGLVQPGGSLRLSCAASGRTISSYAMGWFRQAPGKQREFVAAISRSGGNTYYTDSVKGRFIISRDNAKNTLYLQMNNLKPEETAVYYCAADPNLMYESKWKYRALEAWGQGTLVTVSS
true

Determine whether this binder has % inhibition of binding no lower than 6%: SVT22L (VHH) VHH: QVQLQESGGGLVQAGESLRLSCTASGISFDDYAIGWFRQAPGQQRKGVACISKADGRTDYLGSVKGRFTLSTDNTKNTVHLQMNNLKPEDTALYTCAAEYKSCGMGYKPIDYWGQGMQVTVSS
true

Determine whether this binder has % inhibition of binding no lower than 6%: SVT15L (VHH) VHH: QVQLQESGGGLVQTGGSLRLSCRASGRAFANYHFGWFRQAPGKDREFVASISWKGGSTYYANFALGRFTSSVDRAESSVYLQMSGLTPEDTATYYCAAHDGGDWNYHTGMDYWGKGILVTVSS
false

Determine whether this binder has % inhibition of binding no lower than 6%: SVT03L (VHH) VHH: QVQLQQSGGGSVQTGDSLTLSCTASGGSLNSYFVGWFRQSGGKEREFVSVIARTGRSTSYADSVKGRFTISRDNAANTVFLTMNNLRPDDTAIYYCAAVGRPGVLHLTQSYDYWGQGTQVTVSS
true

Determine whether this binder has % inhibition of binding no lower than 6%: SVT13L (VHH) VHH: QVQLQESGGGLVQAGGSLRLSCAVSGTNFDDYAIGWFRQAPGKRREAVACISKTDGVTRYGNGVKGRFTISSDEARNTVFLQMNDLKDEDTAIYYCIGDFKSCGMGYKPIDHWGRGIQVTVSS
true

Determine whether this binder has % inhibition of binding no lower than 6%: SVT06L (VHH) VHH: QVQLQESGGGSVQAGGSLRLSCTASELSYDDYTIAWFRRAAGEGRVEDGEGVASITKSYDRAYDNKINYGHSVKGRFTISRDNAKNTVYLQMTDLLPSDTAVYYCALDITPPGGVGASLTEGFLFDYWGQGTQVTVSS
false
